Molecular target: T1, formyl peptide receptor 2 (FPR2) (UniProt P25090 1-351, limits assumed)
T1 sequence (looked up): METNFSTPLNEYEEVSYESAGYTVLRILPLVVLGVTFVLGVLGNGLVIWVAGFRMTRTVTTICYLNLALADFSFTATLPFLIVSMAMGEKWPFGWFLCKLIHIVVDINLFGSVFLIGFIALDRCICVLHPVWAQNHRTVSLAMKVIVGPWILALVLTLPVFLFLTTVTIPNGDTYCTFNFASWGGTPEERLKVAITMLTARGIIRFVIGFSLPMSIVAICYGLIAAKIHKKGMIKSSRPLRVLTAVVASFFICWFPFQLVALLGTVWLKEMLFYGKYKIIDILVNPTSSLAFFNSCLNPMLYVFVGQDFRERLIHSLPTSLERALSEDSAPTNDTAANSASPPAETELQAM
Test: cell-based or functional assay
reported.property: EC50 for [Ca2+]

* MRYKPM (HELM PEPTIDE1{[CCCCCCCC(=O)[*:2]].M.R.Y.K.P.[dM].[am]}$$$$V2.0; SMILES CCCCCCCC(=O)N[C@@H](CCSC)C(=O)N[C@@H](CCCNC(=N)N)C(=O)N[C@@H](Cc1ccc(O)cc1)C(=O)N[C@@H](CCCCN)C(=O)N1CCC[C@H]1C(=O)N[C@H](CCSC)C(N)=O) [peptide of SEQ ID NO 57] | < 10 nM
* HMKYKVM (HELM PEPTIDE1{[CCCC(=O)[*:2]].H.M.K.Y.K.V.[dM].[am]}$$$$V2.0; SMILES CCCC(=O)N[C@@H](Cc1c[nH]cn1)C(=O)N[C@@H](CCSC)C(=O)N[C@@H](CCCCN)C(=O)N[C@@H](Cc1ccc(O)cc1)C(=O)N[C@@H](CCCCN)C(=O)N[C@H](C(=O)N[C@H](CCSC)C(N)=O)C(C)C) [peptide of SEQ ID NO 23] | < 10 nM

Hey, just so you know, these numbers are from patent US20250361268A1.
